# System: RAW 264.7 macrophages
# method description: SAFIRE macrophage assay: host toxicity (adherent macrophage count, morphology)
# Type: cell-based
# measurement context: 5 uM
We begin with a simple list: items and their reported 5 uM Avg Cell # Score.

molecule	assay system	5 uM Avg Cell # Score
OC(COc1ccc2c(c1)OCO2)CN1CCC(Nc2nccc(C(F)(F)F)n2)C1 (centres unmarked) [CU099]	RAW 264.7 macrophages	77
OC(COc1ccccc1Cl)CN1CCC(Nc2nccc(C(F)(F)F)n2)C1 (centres unmarked) [CU084]	RAW 264.7 macrophages	96
OC(CNC1Cc2ccccc2C1)COc1ccc(Cl)c(Cl)c1 (centres unmarked) [CU159]	RAW 264.7 macrophages	117
NC1CCN(CC(O)COc2ccc(Cl)cc2Cl)CC1 (centres unmarked) [CU190]	RAW 264.7 macrophages	101
CC(C)(C)c1nc(NC(=N)N)sc1Br [EPM30]	RAW 264.7 macrophages	97

###

# System: RAW 264.7 macrophages
# method description: SAFIRE macrophage assay: host toxicity (adherent macrophage count, morphology)
# Format: cell-based
# measurement context: 25 uM compound; n=1; DMSO solvent control = 100
So basically: is 25 uM Avg Cell # Score under 100? Then rule met. Not under? Then rule not met.

compound	class label
COC(COc1ccc(Cl)c(Cl)c1)CN1CCC(N)CC1 (centres unmarked) [CU242]	rule not met
OC(CN[C@H]1[C@@H]2CNC[C@@H]21)COc1cc(Cl)cc(Cl)c1 (some centres unmarked) [CU244]	rule not met
NCCC1CCN(CC(O)COc2cc(Cl)cc(Cl)c2)CC1 (centres unmarked) [CU250]	rule met
NC1CCN(CC(COc2ccc(Cl)c(Cl)c2)OCc2ccccc2)CC1 (centres unmarked) [CU241]	rule met

###

# Tested on: RAW 264.7 macrophages
# method description: SAFIRE macrophage assay: host toxicity (adherent macrophage count, morphology)
# Format: cell-based
# measurement context: 5 uM

compound	assay system	5 uM Avg Cell # Score
OC(COc1cc(F)cc(Br)c1)CN1CCC(Nc2nccc(C(F)(F)F)n2)CC1 (stereo not drawn) [CU119]	RAW 264.7 macrophages	72
CNC(=O)C1CCN(CC(O)COc2ccc(Cl)c(Cl)c2)CC1 (stereo not drawn) [CU057]	RAW 264.7 macrophages	85
OC(COc1ccc(Cl)c(Cl)c1)CN1CCC(F)(F)C1 (stereo not drawn) [CU124]	RAW 264.7 macrophages	80
CO[C@H]1CCN(CC(O)COc2ccc(Cl)c(Cl)c2)C1 (stereo partly drawn) [CU126]	RAW 264.7 macrophages	81
OC(COc1ccccc1C(F)(F)F)CN1CCC(Nc2nccc(C(F)(F)F)n2)C1 (stereo not drawn) [CU112]	RAW 264.7 macrophages	88
COC(=O)c1ccc(OCC(O)CN2CCC(Nc3nccc(C(F)(F)F)n3)CC2)cc1 (stereo not drawn) [CU075]	RAW 264.7 macrophages	86
O=C(NC1CCN(CC(O)COc2ccc(Cl)c(Cl)c2)C1)c1ccccc1 (stereo not drawn) [CU068]	RAW 264.7 macrophages	80
NC1CCN(CC(O)COc2ccc(Cl)cc2)C1 (stereo not drawn) [CU165]	RAW 264.7 macrophages	105
NCC1CCN(CC(O)COc2cc(Cl)cc(Cl)c2)CC1 (stereo not drawn) [CU208]	RAW 264.7 macrophages	167
OC(COc1ccc(Cl)c(Cl)c1)CN1CCN(CC2CC2)CC1 (stereo not drawn) [CU183]	RAW 264.7 macrophages	103
NCC1CCN(CC(O)COc2ccc(Cl)c(Cl)c2)C1 (stereo not drawn) [CU206]	RAW 264.7 macrophages	124
OC(COc1ccc(Cl)c(Cl)c1)CN1CCC(NC2CC2)C1 (stereo not drawn) [CU028]	RAW 264.7 macrophages	85
OC(COc1ccc(Cl)c(Cl)c1)CN1CCC(Nc2nccc(C(F)(F)F)n2)CC1 (stereo not drawn) [EPM35]	RAW 264.7 macrophages	98
OC(COc1ccc(Cl)c(Cl)c1)CN1CCn2cnnc2C1 (stereo not drawn) [CU156]	RAW 264.7 macrophages	97
CN(C)C1CCN(CC(O)COc2ccc(Cl)c(Cl)c2)C1 (stereo not drawn) [CU142]	RAW 264.7 macrophages	104
OC(COc1ccc(Cl)cc1Cl)CN1CCC(Nc2nccc(C(F)(F)F)n2)C1 (stereo not drawn) [CU087]	RAW 264.7 macrophages	98
OC(COc1cccc2ncccc12)CN1CCC(Nc2nccc(C(F)(F)F)n2)CC1 (stereo not drawn) [CU186]	RAW 264.7 macrophages	121
NC1CCN(CC(O)COc2ccc(Cl)c(Cl)c2)C1 (stereo not drawn) [CU032]	RAW 264.7 macrophages	95
OC(COc1cc(Cl)cc(Cl)c1)CN1CCC(Nc2nccc(C(F)(F)F)n2)CC1 (stereo not drawn) [CU101]	RAW 264.7 macrophages	71
CCOC(=O)c1cccc(OCC(O)CN2CCC(Nc3nccc(C(F)(F)F)n3)CC2)c1 (stereo not drawn) [CU104]	RAW 264.7 macrophages	98
OC(CNC1CCNCC1)COc1ccc(Cl)cc1 (stereo not drawn) [CU198]	RAW 264.7 macrophages	110
